Origin of values: patent US20240376214A1

# test.system: T1, human c-Met (HGFR), full length, on the cell surface (human, UniProt P08581 25-1390)
# T1 construct: Endogenous c-Met on human tumor cell lines MKN45, NCI-H596, PC-3 and HepG2; also called hepatocyte growth factor receptor; mesenchymal-epithelial transition factor
# T1 sequence (P08581 25-1390 limits assumed): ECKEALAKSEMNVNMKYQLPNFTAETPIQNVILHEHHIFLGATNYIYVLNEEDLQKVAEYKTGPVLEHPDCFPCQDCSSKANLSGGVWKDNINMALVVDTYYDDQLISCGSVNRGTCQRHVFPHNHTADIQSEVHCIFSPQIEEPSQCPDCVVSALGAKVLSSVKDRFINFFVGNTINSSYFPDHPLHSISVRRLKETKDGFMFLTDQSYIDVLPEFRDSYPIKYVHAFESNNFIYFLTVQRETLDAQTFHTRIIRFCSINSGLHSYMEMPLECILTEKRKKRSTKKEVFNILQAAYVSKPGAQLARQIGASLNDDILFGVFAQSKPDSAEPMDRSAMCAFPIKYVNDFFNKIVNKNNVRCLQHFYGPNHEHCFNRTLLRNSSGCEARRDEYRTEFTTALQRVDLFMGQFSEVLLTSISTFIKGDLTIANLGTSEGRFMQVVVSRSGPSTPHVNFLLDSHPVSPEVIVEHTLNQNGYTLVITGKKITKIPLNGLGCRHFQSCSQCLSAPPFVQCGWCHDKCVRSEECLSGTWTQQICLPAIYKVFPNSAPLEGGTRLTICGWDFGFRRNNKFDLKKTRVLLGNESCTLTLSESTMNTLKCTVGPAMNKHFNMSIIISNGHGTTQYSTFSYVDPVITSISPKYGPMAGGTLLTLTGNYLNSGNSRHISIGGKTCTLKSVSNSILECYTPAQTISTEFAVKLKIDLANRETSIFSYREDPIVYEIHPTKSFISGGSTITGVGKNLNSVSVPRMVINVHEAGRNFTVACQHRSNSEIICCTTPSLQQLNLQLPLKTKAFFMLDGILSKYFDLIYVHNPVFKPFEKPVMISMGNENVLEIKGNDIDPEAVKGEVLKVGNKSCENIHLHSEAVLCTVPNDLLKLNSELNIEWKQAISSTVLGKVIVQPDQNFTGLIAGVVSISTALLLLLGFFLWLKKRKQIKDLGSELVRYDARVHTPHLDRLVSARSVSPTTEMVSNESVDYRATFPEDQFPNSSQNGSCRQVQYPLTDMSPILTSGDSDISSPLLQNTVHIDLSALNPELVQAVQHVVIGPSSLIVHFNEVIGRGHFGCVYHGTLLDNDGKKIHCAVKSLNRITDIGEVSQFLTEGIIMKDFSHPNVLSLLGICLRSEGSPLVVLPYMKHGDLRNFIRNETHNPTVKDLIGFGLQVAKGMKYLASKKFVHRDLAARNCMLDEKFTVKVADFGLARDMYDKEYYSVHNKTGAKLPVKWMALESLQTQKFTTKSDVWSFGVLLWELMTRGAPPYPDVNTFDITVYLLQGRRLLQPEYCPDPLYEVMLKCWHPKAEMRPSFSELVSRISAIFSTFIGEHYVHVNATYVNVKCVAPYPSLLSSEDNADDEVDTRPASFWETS
# assay.overview: flow cytometry, NCI-H596 cells; EC50 with 50 ng/mL HGF against EC50 without HGF
readout.kind: Fold shift (HGF) (fold)
Dear colleague, please return just the value in fold, with no unit written.

Which Fold shift (HGF) value belongs to mAb1a (antibody, human IgG1, kappa, V domains shown, Humanized IgG1 kappa, HC-41C, from wt/41C-chi-mAb1; also called humanized HC-41C antibody mAb1a; mAbla) VH: QVQLVQSGAEVKKPGASVKVSCKASGYIFTDYFMNWVRQACGQGLEWMGRVNPKNGDITYNQKFRGRVSLTKDTSINTAYMELSGLTSDDTAIYYCAYDGYYDGMDFWGQGTSVTVSS VL: ELVMTQSPSSLSASVGDRVTITCRANSSVSSNFLHWYQQKPGKAPKLLISSTSNLAFGVPSRFSGTGSGTDFSLTISSLQPEDFAIYYCHQYSGHPFTFGQGTKLEIKR ?
2.5

Consider the binder mAb3c (antibody, human IgG1, kappa, V domains shown, Humanized IgG1 kappa, HC-41C, from wt/41C-chi-mAb3; also called humanized HC-41C antibody mAb3c) VH: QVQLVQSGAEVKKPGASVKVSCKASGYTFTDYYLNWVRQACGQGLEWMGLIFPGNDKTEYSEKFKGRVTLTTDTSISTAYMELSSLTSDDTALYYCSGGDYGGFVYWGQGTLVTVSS VL: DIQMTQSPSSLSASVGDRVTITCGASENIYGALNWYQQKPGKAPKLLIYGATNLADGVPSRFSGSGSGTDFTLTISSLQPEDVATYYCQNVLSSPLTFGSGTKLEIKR and give its measured Fold shift (HGF).
5.5

Value lookup for Fold shift (HGF); key = mAb2b (antibody, human IgG1, kappa, V domains shown, Humanized IgG1 kappa, HC-41C, from wt/41C-chi-mAb2; also called humanized HC-41C antibody mAb2b) VH: QVQLVQSGAEVKKPGSSVKVSCKASGYVFPDYEMHWVRQACGQGLEWMGAFDPETGDTTYNQNFKGRVTITADKSTSTAYMELSSLRSEDTAVYYCARDYKYLYYYAMDNWGQGTTVTVSS VL: DIQMTQSPSSLSASVGDRVTITCTASSSITSSYLHWYQQKPGKAPKLLIYSTTNLASGVPSRFSGSGSGTDFTLTISSLQPEDFATYYCHQYRRSPLTFGGGTKLEIKR
2.8
